Form field: GI50 (one value per entry).
test system: HOP-62; assay: NCI tumour cell line growth inhibition, 48 h
Active and inactive are the calls of the source. Cut-off read from the data, not from the text of the source: active = GI50 up to about 1.1 µM and inactive = higher.
readout: GI50

molecule | tested.system | result
CCOC(=O)Cn1c(=O)c2nc(SC)sc2n(-c2ccc(C)cc2)c1=S | HOP-62 | 20 µM (inactive)
O=C1CC(C2(O)C(=O)Nc3ccc([N+](=O)[O-])cc32)c2ccccc21 (stereo not given) | HOP-62 | 64 µM (inactive)
O=c1[nH]c(=O)c2c([nH]1)[nH]c1ccc(Br)cc12 | HOP-62 | > 100 µM (inactive)
CCNC(=O)c1cc(/C=C/c2ccc([N+](=O)[O-])o2)nc2ccccc12 | HOP-62 | 19.6 µM (inactive)
N#Cc1c(O)cc(=O)n2c1[nH]c1ccccc12 | HOP-62 | > 100 µM (inactive)
